Provenance of the data: patent US20240000786A1

target: iNOS-NOSIP protein interaction (Homo sapiens, UniProt Q9Y314); assay: SPR: inhibition of rNOSIP association with immobilized recombinant iNOS by iNOS peptides / small molecules; settings: analyte rNOSIP alone or + peptide/small molecule, ligand r iNOS, 20° C., Kd/Ka
Sequence (Q9Y314 with tags, fused parts or gaps): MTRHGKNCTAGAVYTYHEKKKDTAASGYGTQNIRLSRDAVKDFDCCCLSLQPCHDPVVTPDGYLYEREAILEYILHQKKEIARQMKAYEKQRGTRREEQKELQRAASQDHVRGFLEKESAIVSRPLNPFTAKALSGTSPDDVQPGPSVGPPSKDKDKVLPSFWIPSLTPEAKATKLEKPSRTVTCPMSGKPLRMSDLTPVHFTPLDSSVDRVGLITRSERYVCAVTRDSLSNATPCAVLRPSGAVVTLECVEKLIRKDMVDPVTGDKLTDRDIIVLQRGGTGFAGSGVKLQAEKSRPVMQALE
// classify: if (Kd < 700 µM) 1.0 else 0.0

Use the examples below as a reference point.
Molecule	Study system	Class label
Cc1ccc(-c2nnn(CC(=O)N(Cc3ccco3)C(C(=O)NC(C)(C)C)c3ccc(O)cc3)n2)cc1 (centres unmarked)	iNOS-NOSIP protein interaction (Homo sapiens, UniProt Q9Y314)	1.0
COc1cc(C)ccc1OCc1nc(C(=O)NCc2n[nH]c3c2CCC3)co1	iNOS-NOSIP protein interaction (Homo sapiens, UniProt Q9Y314)	0.0
CCCCN=c1scc(-c2ccc(O)c(C(N)=O)c2)n1N=Cc1cc(Br)c(O)c(OC)c1	iNOS-NOSIP protein interaction (Homo sapiens, UniProt Q9Y314)	1.0

Please turn your attention to the following entry.
Ask: Regarding `CCN(c1ccccc1)S(=O)(=O)c1ccc(Cl)c(NC(=O)COC(=O)c2ccccc2SCC(=O)Nc2ccc3c(c2)OCO3)c1` , kindly confirm whether its Kd is beneath 700 µM.
Result: 0.0

====

Please respond with reported Kd for every item in the list.
target: rNOSIP (Homo sapiens); construct: made in house; host or cells: E. coli BL21 (DE3); assay: Isothermal titration calorimetry (ITC) of rNOSIP with small molecules / 18 mer iNOS peptide (PP2); type: binding; conditions: ITC 25° C., small molecule/peptide in cell, NOSIP in syringe
Sequence (Q9Y314 with tags, fused parts or gaps): as above
Give bare numbers, in nM.

Would you please look over these solved cases?
Compound	Study system	Unit label	Kd
NS(=O)(=O)c1ccc(CCNC(=O)CCCn2c(SCC(=O)c3ccc(Cl)c(Cl)c3)nc3ccsc3c2=O)cc1	rNOSIP (Homo sapiens)	nM	524
COc1cc(C)ccc1OCc1nc(C(=O)NCc2n[nH]c3c2CCC3)co1	rNOSIP (Homo sapiens)	nM	420
CCCCN=c1scc(-c2ccc(O)c(C(N)=O)c2)n1N=Cc1cc(Br)c(O)c(OC)c1	rNOSIP (Homo sapiens)	nM	542
Cc1ccc(-c2nnn(CC(=O)N(Cc3ccco3)C(C(=O)NC(C)(C)C)c3ccc(O)cc3)n2)cc1 (centres unmarked)	rNOSIP (Homo sapiens)	nM	535

Ask: # query: Kd of entry `CCN(c1ccccc1)S(=O)(=O)c1ccc(Cl)c(NC(=O)COC(=O)c2ccccc2SCC(=O)Nc2ccc3c(c2)OCO3)c1`
Result: 493

====

molecular target: rNOSIP (Homo sapiens); construct: made in house; host or cells: E. coli BL21 (DE3); test: Isothermal titration calorimetry (ITC) of rNOSIP with small molecules / 18 mer iNOS peptide (PP2); assay type: binding; details: ITC 25° C.
Test readout: −TΔS (kcal/mol)
Give bare numbers, in kcal/mol.

See these solved cases before continuing.
Molecule	Unit label	−TΔS
CCN(c1ccccc1)S(=O)(=O)c1ccc(Cl)c(NC(=O)COC(=O)c2ccccc2SCC(=O)Nc2ccc3c(c2)OCO3)c1 [MCULE-8094061955]	kcal/mol	0.459
CCCCN=c1scc(-c2ccc(O)c(C(N)=O)c2)n1N=Cc1cc(Br)c(O)c(OC)c1 [MCULE-8395438746]	kcal/mol	20.0
NS(=O)(=O)c1ccc(CCNC(=O)CCCn2c(SCC(=O)c3ccc(Cl)c(Cl)c3)nc3ccsc3c2=O)cc1 [MCULE-3765839647]	kcal/mol	19.8
Cc1ccc(-c2nnn(CC(=O)N(Cc3ccco3)C(C(=O)NC(C)(C)C)c3ccc(O)cc3)n2)cc1 (centres unmarked) [MCULE-8469877005]	kcal/mol	20.8

Please find the next molecule below.
Ask: // returns reported −TΔS for input COc1cc(C)ccc1OCc1nc(C(=O)NCc2n[nH]c3c2CCC3)co1 [MCULE-4640800528]
Result: -0.159

====

Target: iNOS-NOSIP protein interaction (Homo sapiens, UniProt Q9Y314)
Construct: made in house; host or cells: E. coli BL21 (DE3)
Assay: SPR: inhibition of rNOSIP association with immobilized recombinant iNOS by iNOS peptides / small molecules
Format: binding
Conditions: analyte rNOSIP alone or + peptide/small molecule, ligand r iNOS, 20° C., 1:1 Langmuir; read-out: Ka
Procedure: Four different iNOS peptides were synthesized commercially by China peptides and iNOS peptides were used for molecular interaction studies with immobilized recombinant iNOS purified protein. […] The molecular interaction was carried out at 20° C. and kinetic parameters were determined, after fitting the association and dissociation curves to a 1:1 (Langmuir)-binding model. […] The response curves were also recorded on control surfaces. […]
Please respond with reported kon for every item in the list.
Numbers only, in M⁻¹ s⁻¹.

Please report kon for every entry that follows.
1. Cc1ccc(-c2nnn(CC(=O)N(Cc3ccco3)C(C(=O)NC(C)(C)C)c3ccc(O)cc3)n2)cc1 (stereo not shown) [MCULE-8469877005]
2. CCCCN=c1scc(-c2ccc(O)c(C(N)=O)c2)n1N=Cc1cc(Br)c(O)c(OC)c1 [MCULE-8395438746]
3. COc1cc(C)ccc1OCc1nc(C(=O)NCc2n[nH]c3c2CCC3)co1 [MCULE-4640800528]

Result:
[0.822, 0.835, 0.563]

Ask: Entry NS(=O)(=O)c1ccc(CCNC(=O)CCCn2c(SCC(=O)c3ccc(Cl)c(Cl)c3)nc3ccsc3c2=O)cc1 [MCULE-3765839647] : reported kon = ?
Result: 0.807
